targetOrTestSystem: TBK1 (Homo sapiens)
Construct: TBK1 and IKKε were expressed and purified as full length recombinant proteins; made in house
Sequence (Q9UHD2 1-729): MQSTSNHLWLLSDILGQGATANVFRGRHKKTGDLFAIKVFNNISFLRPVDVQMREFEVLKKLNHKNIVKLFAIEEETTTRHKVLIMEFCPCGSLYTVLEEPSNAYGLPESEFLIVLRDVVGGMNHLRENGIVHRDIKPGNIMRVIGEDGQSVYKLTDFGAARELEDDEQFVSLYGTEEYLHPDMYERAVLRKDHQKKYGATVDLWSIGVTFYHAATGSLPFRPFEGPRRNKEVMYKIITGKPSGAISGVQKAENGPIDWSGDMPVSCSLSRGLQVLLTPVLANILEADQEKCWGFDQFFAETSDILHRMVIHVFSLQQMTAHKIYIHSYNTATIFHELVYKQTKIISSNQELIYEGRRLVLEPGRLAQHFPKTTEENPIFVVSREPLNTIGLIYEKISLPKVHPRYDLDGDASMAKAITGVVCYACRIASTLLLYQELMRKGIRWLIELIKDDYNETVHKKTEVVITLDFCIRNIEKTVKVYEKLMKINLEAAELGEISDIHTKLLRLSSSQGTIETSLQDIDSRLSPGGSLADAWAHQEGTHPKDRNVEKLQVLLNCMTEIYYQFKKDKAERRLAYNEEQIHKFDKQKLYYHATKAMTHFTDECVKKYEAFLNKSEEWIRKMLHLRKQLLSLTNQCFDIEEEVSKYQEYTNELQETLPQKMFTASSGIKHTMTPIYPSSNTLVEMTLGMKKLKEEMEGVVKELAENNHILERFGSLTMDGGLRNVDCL
assayText: TR-FRET enzymatic activity assay, TBK1; also: full length recombinant TBK1 at 2.5 nM
Assay type: biochemical
metric: IC50 (nM)

Study these solved cases before continuing.
>  <smilesEntry>
N#Cc1cc(-c2ccnc(NC(=O)[C@H]3[C@@H]4COC[C@@H]43)c2)ccc1OC1CCOCC1

>  <unitAbbreviation>
nM

>  <endpointValue>
871

$$$$
>  <smilesEntry>
N#Cc1cc(-c2ccnc(NC(=O)[C@H]3C[C@H]3F)c2)ccc1N1CCC(O)CC1

>  <unitAbbreviation>
nM

>  <endpointValue>
470

$$$$
>  <smilesEntry>
Cn1cc([C@H]2C[C@@H]2C(=O)Nc2cc(-c3ccc(O[C@H]4CCN(C(=O)CO)C[C@H]4F)c(C#N)c3)ccn2)cn1

>  <unitAbbreviation>
nM

>  <endpointValue>
5.7

$$$$

1. COc1cc(-c2ccnc(NC(=O)C3CC3)c2)cc(C#N)c1OC1CCOCC1
2. N#Cc1cc(-c2cc(NC(=O)C3CC3)ncn2)ccc1O[C@H]1CCN(C(=O)CO)CC1(F)F
3. N#Cc1cc(-c2ccnc(NC(=O)[C@H]3C[C@H]3F)c2)ccc1N1CCCC1
Q: Ascending by IC50, please: list the compounds accordingly. Please respond with the labels ordered as the question requires.
Ans: 2, 3, 1
(2: 4.8 nM, 3: 85.3 nM, 1: 492 nM)

---

targetOrTestSystem: IKKε (Homo sapiens, UniProt Q14164)
Construct: TBK1 and IKKε were expressed and purified as full length recombinant proteins
Sequence (Q14164 whole entry): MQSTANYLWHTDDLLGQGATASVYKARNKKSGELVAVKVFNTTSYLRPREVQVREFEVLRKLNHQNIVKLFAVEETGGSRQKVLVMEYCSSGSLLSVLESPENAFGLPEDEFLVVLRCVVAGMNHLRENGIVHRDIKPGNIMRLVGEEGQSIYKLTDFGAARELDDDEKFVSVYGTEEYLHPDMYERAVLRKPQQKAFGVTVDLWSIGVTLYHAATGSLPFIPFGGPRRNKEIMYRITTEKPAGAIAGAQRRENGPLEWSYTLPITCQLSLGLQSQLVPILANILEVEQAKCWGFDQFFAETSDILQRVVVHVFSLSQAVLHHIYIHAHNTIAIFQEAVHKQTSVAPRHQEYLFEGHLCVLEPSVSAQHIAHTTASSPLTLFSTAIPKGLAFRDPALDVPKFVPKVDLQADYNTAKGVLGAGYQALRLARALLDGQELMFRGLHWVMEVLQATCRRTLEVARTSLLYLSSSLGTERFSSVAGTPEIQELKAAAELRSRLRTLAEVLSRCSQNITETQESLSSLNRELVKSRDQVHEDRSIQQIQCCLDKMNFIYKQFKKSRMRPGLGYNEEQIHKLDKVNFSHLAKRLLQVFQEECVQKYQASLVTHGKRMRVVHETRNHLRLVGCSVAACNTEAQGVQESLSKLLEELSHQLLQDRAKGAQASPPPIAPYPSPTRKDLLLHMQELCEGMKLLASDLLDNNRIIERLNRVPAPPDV
assayText: TR-FRET enzymatic activity assay, IKKε; also: full length recombinant IKKε at 0.3 nM
measurementSetup: read-out: IKKϵ IC50
pIC50: −log10 of the molar value.
metric: pIC50

>  <compound>
N#Cc1cc(-c2ccnc(NC(=O)[C@@H]3C[C@H]3CO)c2)ccc1OC1CCOCC1 (relative stereo)

>  <metric>
pIC50

>  <endpointValue>
7.32

$$$$
>  <compound>
N#Cc1cc(-c2ccnc(NC(=O)[C@@H]3C[C@H]3C(=O)NCCO)c2)ccc1OC1CCOCC1 (relative stereo)

>  <metric>
pIC50

>  <endpointValue>
6.37

$$$$
>  <compound>
N#Cc1cc(-c2ccnc(NC(=O)C3CC3c3c[nH]cn3)c2)ccc1O[C@H]1CCN(C(=O)CO)C[C@H]1F (some centres unmarked)

>  <metric>
pIC50

>  <endpointValue>
7.33

$$$$
>  <compound>
Cn1cc(C2CC2C(=O)Nc2cc(-c3ccc(O[C@H]4CCN(C(=O)CO)C[C@H]4F)c(C#N)c3)ccn2)cn1 (some centres unmarked)

>  <metric>
pIC50

>  <endpointValue>
7.61

$$$$
>  <compound>
Cn1ccnc1[C@@H]1C[C@H]1C(=O)Nc1cc(-c2ccc(O[C@H]3CCN(C(=O)CO)CC3(F)F)c(C#N)c2)ncn1

>  <metric>
pIC50

>  <endpointValue>
7.44

$$$$

P. N#Cc1cc(-c2ccnc(NC(=O)C3C[C@@H]3F)c2)ccc1O[C@H]1CCN(C(=O)CO)C[C@H]1F (some centres unmarked)
Q. N#Cc1cc(-c2ccnc(NC(=O)[C@@H]3C[C@H]3F)c2)ccc1O[C@H]1CCN(C(=O)CO)C[C@H]1F
R. Cn1cc([C@@H]2C[C@H]2C(=O)Nc2cc(-c3ccc(OC4CCOCC4)c(C#N)c3)ccn2)cn1 (relative stereo)
S. N#Cc1cc(-c2ccnc(NC(=O)[C@@H]3C[C@H]3C#N)c2)ccc1OC1CCOCC1 (relative stereo)
Q: Sort ascending by pIC50. Give the labels in the order specified.
Ans: S, R, P, Q

I. N#Cc1cc(-c2ccnc(NC(=O)[C@@H]3C[C@H]3c3cccnc3)c2)ccc1O[C@H]1CCN(C(=O)CO)C[C@H]1F [Example 135]
II. N#Cc1cc(-c2cc(NC(=O)C3CC3)ncn2)ccc1O[C@H]1CCN(C(=O)c2nnc[nH]2)C[C@H]1F
Q: Compare I and II and name the one whose reported pIC50 is smaller. Respond using the label that marks the chosen record.
Ans: I
(I: 7.56, II: 7.91)

Recorded values, source patent US10316049B2.
